System: PPARg:RXRa DBDmut IVT, anti-RXR (DBD mutation: RXRa K156A/R161A, NR concentration 270 nM, RXRa partner concentration 90 nM)
Assay: PBM binding z-score (relative to random genomic background probes); higher = stronger binding; sequences stand for … in GC…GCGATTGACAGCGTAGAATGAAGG
Each item that follows carries a reported PBM binding z-score.
Kindly provide the number alone.

ACTTACGTGTCAACGAGGTTATAGCACGCGTATA | 0.785
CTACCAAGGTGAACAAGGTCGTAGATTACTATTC | 2.43
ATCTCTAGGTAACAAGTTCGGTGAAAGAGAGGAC | 3.31

Bench note: what PBM binding z-score did `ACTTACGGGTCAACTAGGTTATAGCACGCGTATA` show?
3.88

Bench note: what PBM binding z-score did `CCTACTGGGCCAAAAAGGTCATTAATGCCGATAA` show?
3.72

Bench note: what PBM binding z-score did `TCATATAGGTTATACAGGTGAAAGTCGGCATCTA` show?
4.73

Bench note: what PBM binding z-score did `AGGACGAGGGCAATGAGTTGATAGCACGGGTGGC` show?
1.76

Bench note: what PBM binding z-score did `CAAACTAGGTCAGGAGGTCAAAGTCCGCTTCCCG` show?
7.85

Bench note: what PBM binding z-score did `CCAGACAGGCGAGAAGGTAACTCAGCCTCGATTA` show?
-0.678

Bench note: what PBM binding z-score did `ATCGAAAGGTCGAGGTAAGTATAGAGAAAGGGAA` show?
0.0665

Bench note: what PBM binding z-score did `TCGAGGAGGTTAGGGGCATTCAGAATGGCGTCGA` show?
1.17

Bench note: what PBM binding z-score did `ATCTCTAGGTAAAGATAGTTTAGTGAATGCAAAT` show?
1.81

====

Test system: PPARg:RXRa 90nM:30nM, anti-RXR (NR concentration 90 nM, RXRa partner concentration 30 nM)
Experiment: PBM binding z-score (relative to random genomic background probes); higher = stronger binding; sequences stand for … in GC…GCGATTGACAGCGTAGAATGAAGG
Note: every record was labeled by where its PBM binding z-score sits among LOW = under 1, MID = from 1 up to 3, HIGH = 3 and over

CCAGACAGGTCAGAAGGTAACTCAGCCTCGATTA | MID

Which band does `CCTAGCAGGCCAATCTGGGTCTCTCAAGGCTTGA` fall in?
LOW

Which band does `GAGACAGGGTCAAGGCCAGAGTACGCGTATTGAT` fall in?
HIGH

Which band does `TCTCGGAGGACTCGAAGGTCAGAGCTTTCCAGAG` fall in?
MID

Which band does `ATCGAAAGGTCGTAGGTGAGTATACCCACCCGAA` fall in?
HIGH

Which band does `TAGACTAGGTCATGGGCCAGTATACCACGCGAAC` fall in?
HIGH

Which band does `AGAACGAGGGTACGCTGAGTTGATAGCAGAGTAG` fall in?
LOW

Which band does `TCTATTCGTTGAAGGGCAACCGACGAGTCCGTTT` fall in?
HIGH

Which band does `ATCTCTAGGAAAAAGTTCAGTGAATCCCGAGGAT` fall in?
MID

Which band does `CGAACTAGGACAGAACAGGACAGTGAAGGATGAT` fall in?
LOW

Which band does `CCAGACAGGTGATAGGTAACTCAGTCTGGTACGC` fall in?
MID

Which band does `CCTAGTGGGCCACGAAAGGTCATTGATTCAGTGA` fall in?
HIGH

Which band does `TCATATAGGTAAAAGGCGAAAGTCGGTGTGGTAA` fall in?
HIGH

Which band does `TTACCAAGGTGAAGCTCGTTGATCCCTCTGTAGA` fall in?
LOW

Which band does `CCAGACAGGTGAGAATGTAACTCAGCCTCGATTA` fall in?
LOW

Which band does `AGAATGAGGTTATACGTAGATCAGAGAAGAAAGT` fall in?
MID

Which band does `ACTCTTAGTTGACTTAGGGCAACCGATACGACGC` fall in?
LOW

Which band does `TCTAGTAGGCCAGAGGGTCACTCAAGAGGTACGG` fall in?
HIGH

Which band does `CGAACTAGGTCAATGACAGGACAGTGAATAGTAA` fall in?
HIGH

Which band does `CCGACTGGGGCAAAGGTTACAATACTCAGTACGA` fall in?
HIGH

Which band does `CGTCCAAGGTCAGCAGGACAGTGAAAGCGACGTG` fall in?
MID

Which band does `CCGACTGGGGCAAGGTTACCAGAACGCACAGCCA` fall in?
MID

Which band does `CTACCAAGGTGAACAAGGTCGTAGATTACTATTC` fall in?
LOW

====

System: VDR:RXRa (NR concentration 270 nM, RXRa partner concentration 90 nM)
Assay: PBM binding z-score (relative to random genomic background probes); higher = stronger binding; sequences stand for … in GC…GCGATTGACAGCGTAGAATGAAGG
Each item that follows carries a reported PBM binding z-score.

Example entries and their recorded answers appear below.
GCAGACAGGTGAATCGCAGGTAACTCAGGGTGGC | -0.428
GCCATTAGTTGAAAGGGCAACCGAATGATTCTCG | 0.274
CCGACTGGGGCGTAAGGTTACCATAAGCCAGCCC | 0.154
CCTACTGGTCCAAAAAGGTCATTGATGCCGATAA | 4.99
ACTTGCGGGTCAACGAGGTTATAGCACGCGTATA | 7.55

Any idea what PBM binding z-score came out for `TCATATAGGTAAAAGGTGCAAGTCGGTGTGGTAA` on VDR:RXRa (NR concentration 270 nM, RXRa partner concentration 90 nM)?
1.09

Any idea what PBM binding z-score came out for `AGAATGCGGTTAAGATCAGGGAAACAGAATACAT` on VDR:RXRa (NR concentration 270 nM, RXRa partner concentration 90 nM)?
-0.269

Any idea what PBM binding z-score came out for `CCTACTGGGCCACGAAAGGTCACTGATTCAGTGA` on VDR:RXRa (NR concentration 270 nM, RXRa partner concentration 90 nM)?
3.77

Any idea what PBM binding z-score came out for `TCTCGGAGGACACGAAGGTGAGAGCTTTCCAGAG` on VDR:RXRa (NR concentration 270 nM, RXRa partner concentration 90 nM)?
-0.377

Any idea what PBM binding z-score came out for `CCTACTGGGCCGAAGGTCATTGATTCCAATGCTC` on VDR:RXRa (NR concentration 270 nM, RXRa partner concentration 90 nM)?
2.51

Any idea what PBM binding z-score came out for `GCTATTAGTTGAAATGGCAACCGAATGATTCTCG` on VDR:RXRa (NR concentration 270 nM, RXRa partner concentration 90 nM)?
-0.304

Any idea what PBM binding z-score came out for `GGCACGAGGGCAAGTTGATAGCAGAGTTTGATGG` on VDR:RXRa (NR concentration 270 nM, RXRa partner concentration 90 nM)?
0.599

Any idea what PBM binding z-score came out for `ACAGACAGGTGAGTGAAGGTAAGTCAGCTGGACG` on VDR:RXRa (NR concentration 270 nM, RXRa partner concentration 90 nM)?
-0.37

Any idea what PBM binding z-score came out for `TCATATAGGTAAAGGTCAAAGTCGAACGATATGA` on VDR:RXRa (NR concentration 270 nM, RXRa partner concentration 90 nM)?
4.77

Any idea what PBM binding z-score came out for `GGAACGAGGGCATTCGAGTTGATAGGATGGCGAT` on VDR:RXRa (NR concentration 270 nM, RXRa partner concentration 90 nM)?
3.74

Any idea what PBM binding z-score came out for `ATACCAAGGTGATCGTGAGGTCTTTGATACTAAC` on VDR:RXRa (NR concentration 270 nM, RXRa partner concentration 90 nM)?
0.526

Any idea what PBM binding z-score came out for `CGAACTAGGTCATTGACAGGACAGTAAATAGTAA` on VDR:RXRa (NR concentration 270 nM, RXRa partner concentration 90 nM)?
2.34

====

Tested on: PPARg DBDmut IVT, anti-PPARg (DBD mutation: PPARg1 K132A/R137A, NR concentration 270 nM)
Experiment: PBM binding z-score (relative to random genomic background probes); higher = stronger binding; sequences stand for … in GC…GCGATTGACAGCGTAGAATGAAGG
assay-readout: PBM binding z-score
Kindly provide the number alone.

Example entries and their recorded answers appear below.
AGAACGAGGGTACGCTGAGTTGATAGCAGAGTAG | 0.0529
TCTGCTAGGTCAACGATGGTCCGCTAATCTGCTA | 0.0666
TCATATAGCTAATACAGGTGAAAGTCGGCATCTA | 0.528
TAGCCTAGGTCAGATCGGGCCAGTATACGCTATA | -0.375
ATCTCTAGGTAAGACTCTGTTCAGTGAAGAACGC | 0.753
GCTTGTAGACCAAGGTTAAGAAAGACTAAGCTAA | 0.161

Bench note: what PBM binding z-score did `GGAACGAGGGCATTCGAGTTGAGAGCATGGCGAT` show?
-0.828

Cited source for all entries: the supplement of paper PMC6555819
